src = paper PMC7320011

# ASSAY_COMMENT: Singlet oxygen quantum yield, indirect evaluation (1O2 scavenger absorbance)
# Type: physicochemical
# COND: 540 nm, PBS
TEST_READOUT: Singlet oxygen quantum yield, Indirect 540 nm PBS (%)
Expressed in %, but write only the number.

Solved entries:
CN(C)c1ccc(/C=C/c2ccnc(-c3cc(/C=C/c4ccc(N(C)C)cc4)ccn3)c2)cc1.CN(C)c1ccc(/C=C/c2ccnc(-c3cc(/C=C/c4ccc(N(C)C)cc4)ccn3)c2)cc1.F[P-](F)(F)(F)(F)F.F[P-](F)(F)(F)(F)F.[Ru+2].c1ccc(-c2ccccn2)nc1
3
COc1ccc(/C=C/c2ccnc(-c3cc(/C=C/c4ccc(OC)cc4)ccn3)c2)cc1.COc1ccc(/C=C/c2ccnc(-c3cc(/C=C/c4ccc(OC)cc4)ccn3)c2)cc1.COc1ccc(/C=C/c2ccnc(-c3cc(/C=C/c4ccc(OC)cc4)ccn3)c2)cc1.F[P-](F)(F)(F)(F)F.F[P-](F)(F)(F)(F)F.[Ru+2]
5
CN(C)c1ccc(/C=C/c2ccnc(-c3cc(/C=C/c4ccc(N(C)C)cc4)ccn3)c2)cc1.F[P-](F)(F)(F)(F)F.F[P-](F)(F)(F)(F)F.[Ru+2].c1ccc(-c2ccccn2)nc1.c1ccc(-c2ccccn2)nc1
2

Now look at this one.
Which value of Singlet oxygen quantum yield, Indirect 540 nm PBS has been reported for COc1ccc(/C=C/c2ccnc(-c3cc(/C=C/c4ccc(OC)cc4)ccn3)c2)cc1.F[P-](F)(F)(F)(F)F.F[P-](F)(F)(F)(F)F.[Ru+2].c1ccc(-c2ccccn2)nc1.c1ccc(-c2ccccn2)nc1 in the records?
10
